# target or system: T1, cyno SIRPα-Fc (cynomolgus)
# T1 construct: a signal peptide may be part of the entry
# assay info: BLI Octet, antigen-Fc on biosensor;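 further: antigen captured on the biosensor tip and then immersed in solutions of the test antibodies, which act as the analyte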
For each entry below, report its Kd value.
Answer with a number only, understood to be in nM.

Requested read-out: Kd. Entry: SIRPAB-4 (antibody, human IgG1, kappa, V domains shown) VH: QVQLQESGPGLVKPSQTLSLTCTVSGGSISSGSPYWSWIRQHPGKGLEWIGYIYASGFTYYNPSLKSRVTISVDTSKNQFSLKLSSVTAADTAVYYCAREGYHSGMDVWGQGTTVTVSS VL: DIQMTQSPSSLSASVGDRVTITCQASQDISNYLNWYQQKPGKAPKLLIYDASNLATGVPSRFSGSGSGTDFTFTISSLQPEDIATYYCQQFAYLPWTFGGGTKVEIKR
18

// lookup Kd for SIRPAB-2 (antibody, human IgG1, kappa, V domains shown) VH: QVQLQESGPGLVKPSQTLSLTCTVSGGSISSGGDYWAWIRQHPGKGLEWIGYIYPSGFTYYNPSLKSRVTISVDTSKNQFSLKLSSVTAADTAVYYCAREGYHSGMDVWGQGTTVTVSS VL: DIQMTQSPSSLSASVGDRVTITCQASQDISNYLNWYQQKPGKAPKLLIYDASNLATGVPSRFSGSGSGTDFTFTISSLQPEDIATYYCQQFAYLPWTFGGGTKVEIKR
19.3

Recorded Kd of SIRPAB-3 (antibody, human IgG1, kappa, V domains shown) VH: QVQLQESGPGLVKPSQTLSLTCTVSGGSISSGGWYWQWIRQHPGKGLEWIGTIYYSGSTFYNPSLKSRVTISVDTSKNQFSLKLSSVTAADTAVYYCAREGYHSGMDVWGQGTTVTVSS VL: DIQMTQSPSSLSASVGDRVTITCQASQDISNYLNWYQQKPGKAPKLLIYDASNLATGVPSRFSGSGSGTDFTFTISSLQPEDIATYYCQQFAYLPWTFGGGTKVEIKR , please.
7.95
